- Measurement Target: LDB3, O75112
- Sequence (O75112 1-94): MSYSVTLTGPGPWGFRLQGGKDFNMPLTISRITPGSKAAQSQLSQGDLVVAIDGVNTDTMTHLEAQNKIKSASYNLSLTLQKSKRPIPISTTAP
- Experiment Notes: holdup assay
- Parameters: key: below the threshold = too weak to quantify, mostly under pKd 3.1 to 4
- Test Settings: plain residues with an end cap or a label only (N-terminal biotin on a linker: ado-ado)
Reported Property: pKd

Recorded results for 6 binders are shown here.
- Binder: "TGLWKHETTV [ADGRA3, Q8IWK6]"
  Result: "below the threshold"
- Binder: "PPGKHLVTEV [KCNA7, Q96RP8]"
  Result: "below the threshold"
- Binder: "PYSESDDDWC [CACNA1A, O00555]"
  Result: "below the threshold"
- Binder: "QSGLYESEEL [MYOT, Q9UBF9]"
  Result: 5.2
- Binder: "SVTSERETNI [SLC16A7, O60669]"
  Result: "below the threshold"
- Binder: "NTANRRTTPV [CACNG2, Q9Y698]"
  Result: "below the threshold"

Kindly note the recorded pKd for ELSATVTTDC [TRIP6, Q15654] , which is 3.72

Kindly note the recorded pKd for AEASVACSLC [PTGIR, P43119] , which is below the threshold

Origin of the recorded values: paper PMC9482650
